Hey, just so you know, these numbers are from patent US11939361B2.

# method-description: Rat PK Study 1: intraduodenal/intracolonic dosing with absorption enhancers
# Format: in vivo, Sprague Dawley rats
# reported-conditions: male, Sprague Dawley, plasma, other: intracolonic, 10 mg/kg, IC dose 10 mg/kg, Enteris A 60 mg/kg

| compound | Cmax (ng/mL) |
| --- | --- |
| CC(=O)NCCCC[C@@H]1NC(=O)[C@H](Cc2c[nH]c3c(C)cccc23)NC(=O)[C@H]([C@@H](C)O)NC(=O)[C@H](CC(N)=O)NC(=O)[C@@H](NC(C)=O)C(C)(C)SSC(C)(C)[C@@H](C(=O)N[C@@H](Cc2ccc(OCCN)cc2)C(=O)N[C@@H](Cc2ccc3ccccc3c2)C(=O)NC2(C(=O)N[C@@H](CCC(=O)O)C(=O)N[C@@H](CC(N)=O)C(=O)N[C@@H](Cc3cccnc3)C(=O)N(C)CC(N)=O)CCOCC2)NC1=O [SEQ ID NO: 1] | 626 |
